Test system: Chordin-like protein 2 (CHRDL2)
Method description: CHRDL2 small-molecule binders, primary screen, biochemical, small-molecule microarray, 635 nm fluorescence (AID 1126);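 also: printed compound slides probed with Chrdl2 protein at 4 µg/mL for 1 h at 4 C; score merges 667 nm emission intensity with signal to noise over three replicate slides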
Measurement conditions: small-molecule microarray binding, fluorescence 635 nm; higher = more signal
# maps each entry to its composite z-score
Property name: composite z-score

Molecule: CC(=O)OC[C@H]1O[C@H](CC=NOCC[C@@H]2C=C[C@H](OC(C)=O)[C@@H](COC(C)=O)O2)C=C[C@@H]1OC(C)=O
Value measured: 0.973
//
Molecule: CO[C@@H]1C=CCC(=O)N[C@@H](C)C(=O)OC[C@@H](OC)[C@H](C)C=CCC(=O)OC[C@H]1C
Value measured: 1.49
//
Molecule: O=C1[C@H]2[C@H]3[C@H](O)[C@H](O)CC(=NOCc4ccccc4)[C@@H]3CC[C@H]2C(=O)N1c1cccc(Oc2ccccc2)c1
Value measured: 0.0204
//
Molecule: CO[C@H]1COC(=O)CCC[C@H](C)[C@H](OC)COC(=O)CC=C[C@@H]1C
Value measured: 1.15
//
Molecule: C=CC[C@@H]1C=C[C@H](ON=C(C)CCN2CCCCc3nc(C)c(C)cc32)[C@@H](CO)O1
Value measured: 1.47
//
Molecule: COC(=O)[C@H](C)NC(=O)CCC1CC(OC(=O)NCc2cccc3ccccc23)CC2(CCCC(COC(=O)NCc3cccc(C(F)(F)F)c3)O2)O1 (stereo partly drawn)
Value measured: 0.293
//
Molecule: COC(=O)[C@H](C)NC(=O)CCC1CC(OC(=O)NCc2cccc3ccccc23)CC2(CCCC(COC(=O)NCCOc3ccccc3)O2)O1 (stereo partly drawn)
Value measured: -0.254
//
Molecule: Cc1ccc(C(C)C)n1C(=O)OC(C)(C)C
Value measured: 0.501

====

Tgt: Epidermal growth factor receptor (Homo sapiens)
Method description: EGFR binders on small-molecule microarrays, primary screen, biochemical, small-molecule microarray, 635 nm fluorescence (AID 1104);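 also: score merges 667 nm emission intensity with spot signal to noise over triplicate slides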
Measurement conditions: EGFR binding, higher = more signal

Query smiles: CO[C@@H]1C=CCC(=O)N[C@@H](C)C(=O)OC[C@@H](NS(=O)(=O)c2ccc(C)cc2)[C@H](C)C=CCC(=O)OC[C@H]1C
Tgt: Epidermal growth factor receptor (Homo sapiens)
composite z-score: 0.329
//
Query smiles: O=C1C=C[C@@H](O)[C@@H]2[C@@H]3C(=O)N(c4cccc(Oc5ccccc5)c4)C(=O)[C@@H]3CC[C@@H]12
Tgt: Epidermal growth factor receptor (Homo sapiens)
composite z-score: 0.386
//
Query smiles: C=CC[C@@H]1C=C[C@H](ON=C2C[C@@H](O)[C@@H](O)[C@@H]3[C@@H]4C(=O)N(CC)C(=O)[C@@H]4CC[C@@H]23)[C@@H](CO)O1
Tgt: Epidermal growth factor receptor (Homo sapiens)
composite z-score: -0.0239
//
Query smiles: COC(=O)[C@@H]1CC[C@H](C)[C@@H](c2ccc(C)cc2)N1C(=O)c1ccc(C=NOC[C@H]2O[C@H](c3ccccc3)C=C[C@@H]2Oc2ccc(OC)cc2)cc1
Tgt: Epidermal growth factor receptor (Homo sapiens)
composite z-score: 0.331
//
Query smiles: O=C1[C@H]2[C@H]3[C@H](O)[C@H](O)CC(=NO[C@@H]4O[C@H](CO)[C@@H](O)[C@H](O)[C@H]4O)[C@H]3CC[C@H]2C(=O)N1C[C@@H]1CCCO1
Tgt: Epidermal growth factor receptor (Homo sapiens)
composite z-score: 0.522
//
Query smiles: CCOC(=O)CCN1C(=O)[C@H]2[C@H]3[C@H](O)[C@H](O)CC(=NOCC=C(C)CCC=C(C)C)[C@@H]3CC[C@H]2C1=O
Tgt: Epidermal growth factor receptor (Homo sapiens)
composite z-score: 1.17

====

Method description: binders of probe aFST on microarray, primary screen, stem cell growth factor project, biochemical, small-molecule microarray, fluorescence 635/667 (AID 1086);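 also: score merges 667 nm fluorescence with signal-to-noise of each printed compound spot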
Measurement conditions: higher = more signal
Below: a set of entries, each annotated with reported composite z-score.

Compound: CON=C[C@@H](OC)[C@H](C)C=CCC(=O)OC
composite z-score: 0.272
--
Compound: CCOC(=O)[C@H](Cc1ccccc1)NC(=O)CCC1CC(OC(=O)NCc2ccc3c(c2)OCO3)CC2(CCCC(COC(=O)NCCCN3CCCC3=O)O2)O1 (some centres not stated)
composite z-score: 0.827
--
Compound: CC(C)[C@@H](OCc1ccccc1)[C@H](C)C=NOC[C@@H](O)[C@H]1O[C@@H]2OC(C)(C)O[C@@H]2[C@H]1O
composite z-score: 0.307
--
Compound: COC(=O)CC=C[C@@H](C)[C@@H](C=NOC[C@@H](C)[C@H](OCc1ccccc1)C(C)C)NS(=O)(=O)c1ccc(C)cc1
composite z-score: -0.0646
--
Compound: CCN1C(=O)[C@H]2[C@H]3[C@H](O)[C@H](O)CC(=NO[C@@H](C)c4cc(-c5c(C)cc(C)cc5C)no4)[C@@H]3CC[C@H]2C1=O
composite z-score: 0.544
--
Compound: O=C1[C@H]2[C@H]3[C@H](O)[C@H](O)CC(=NOCc4ccccc4)[C@H]3CC[C@H]2C(=O)N1C1CCCCC1
composite z-score: 0.404
--
Compound: CCO[C@H](c1cc(OC)cc([N+](=O)[O-])c1OC)[C@H](C)[C@@H](OC)[C@H](C)C=CCC(=O)OC
composite z-score: 0.414

====

Method description: Plasmodium falciparum growth inhibition, primary screen, strain 3D7, DAPI fluorescence, 100 nL (AID 1184);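 also: parasites grown inside human red blood cells in medium with human serum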
Measurement conditions: P. falciparum 3D7 growth, 3 d, higher = more signal
Property name: z-score

Query smiles: COc1ccc(O[C@H]2C=C[C@@H](c3ccccc3)O[C@@H]2CON=C2c3cc(OC)ccc3O[C@H](c3cccc(OC)c3)[C@H]2O)cc1
Property name: z-score
Value measured: 0.106
--
Query smiles: CC(CCN1CCCc2nc(C)c(C)cc21)=NO[C@H](C)c1cn([C@H](CO)Cc2ccccc2)nn1
Property name: z-score
Value measured: -2.52
--
Query smiles: CC(CCC(=O)OC[C@H]1O[C@H](C#Cc2ccccc2)C=C[C@@H]1Oc1ccc(C)cc1)=NO[C@H](C)c1cn([C@@H]2COC[C@H]2O)nn1
Property name: z-score
Value measured: -0.114
--
Query smiles: CCN1C(=O)[C@H]2[C@H]3[C@H](O)[C@H](O)CC(=NOCC=C(C)CCC=C(C)C)[C@@H]3CC[C@H]2C1=O
Property name: z-score
Value measured: -0.298

====

Tgt: Homeobox protein Hox-A13 (Mus musculus) (UniProt Q62424)
Sequence (Q62424 whole entry, looked up): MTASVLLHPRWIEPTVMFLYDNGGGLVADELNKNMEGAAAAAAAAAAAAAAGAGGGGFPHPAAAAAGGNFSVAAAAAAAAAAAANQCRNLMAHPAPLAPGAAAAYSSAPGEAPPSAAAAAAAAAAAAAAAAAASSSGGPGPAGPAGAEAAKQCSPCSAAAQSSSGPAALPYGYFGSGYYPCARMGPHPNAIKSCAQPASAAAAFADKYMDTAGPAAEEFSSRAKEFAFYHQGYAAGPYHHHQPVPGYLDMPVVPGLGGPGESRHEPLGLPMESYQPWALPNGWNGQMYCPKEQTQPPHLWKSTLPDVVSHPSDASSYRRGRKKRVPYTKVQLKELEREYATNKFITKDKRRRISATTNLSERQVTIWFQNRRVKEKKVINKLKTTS
Method description: inhibitors of HoxA13-DNA binding, primary screen, biochemical, fluorescence polarization, labeled oligonucleotide (AID 1185)
Measurement conditions: 15 min, higher = more signal, called active from +8 up or from −8 down
Items are presented alongside their recorded z-score.

Compound: COC(=O)[C@H](Cc1ccccc1)NC(=O)[C@@H](C)CO
z-score: 1.16

Compound: CCOC(=O)[C@H](Cc1ccccc1)NC(=O)CCC1CC(OC(=O)NCCc2ccc(F)cc2)CC2(CCCC(COC(=O)NCCOc3ccccc3)O2)O1 (stereo partly specified)
z-score: -2.88

Compound: COC(=O)[C@@H]1CC[C@H](C)[C@@H](c2ccc(Br)cc2)N1C[C@@H](O)CN=[N+]=[N-]
z-score: -3.81

Compound: CO[C@@H]1COC(=O)[C@H](COCc2ccccc2)NC(=O)CC=C[C@@H](C)[C@H](OC)COC(=O)[C@@H](C)NC(=O)CC=C[C@H]1C
z-score: -1.83

Compound: CCOC(=O)[C@H](CC(C)C)NC(=O)CCC1CC(OC(=O)NCc2ccc3c(c2)OCO3)CC2(CCCC(COC(=O)NCCc3ccccc3OC)O2)O1 (stereo partly specified)
z-score: -3.78

Compound: COC(=O)[C@@H]1CC[C@H](C)[C@@H](c2ccc(Br)cc2)N1
z-score: -0.164

Compound: COC(=O)[C@H](C)NC(=O)CC=C[C@@H](C)[C@@H]1C=C[C@H](O)[C@@H](CO)O1
z-score: -0.56

Compound: CC(CCC(=O)OC[C@H]1O[C@H](C#Cc2ccccc2)C=C[C@@H]1Oc1ccc(C)cc1)=NO[C@@H](C)c1cc(-c2c(C)cc(C)cc2C)no1
z-score: -1.88

Compound: COC(=O)C(C(=O)OC)C1CCCC(=O)C1 (stereo unspecified)
z-score: -0.243

Compound: C=CC[C@@H]1C=C[C@H](ON=C(C)CCN2CCCc3nc(C)c(C)cc32)[C@@H](CO)O1
z-score: -7.32

Compound: C[C@H]1CC[C@H]2C(=O)N[C@H](Cc3ccccc3)C(=O)N2[C@@H]1c1ccccc1
z-score: -0.879

Compound: O=C1[C@H]2[C@H]3[C@H](O)[C@H](O)CC(=NOCc4ccccc4)[C@H]3CC[C@H]2C(=O)N1C1CCCCC1
z-score: 0.449

Compound: COc1ccc(COC(=O)NN=C2C[C@@H](O)[C@@H](O)[C@@H]3[C@@H]4C(=O)N(C[C@@H]5CCCO5)C(=O)[C@@H]4CC[C@H]23)cc1
z-score: 0.459

Compound: C=CC[C@@H]1C=C[C@H](ON=CC[C@@H]2C=C[C@H](OC(C)=O)[C@@H](COC(C)=O)O2)[C@@H](CO)O1
z-score: -0.273

Compound: COC(=O)[C@H](C)NC(=O)CCC1CC(OC(=O)NCc2cccc3ccccc23)CC2(CCCC(COC(=O)NCCc3ccccc3OC)O2)O1 (stereo partly specified)
z-score: -4.27

Compound: CCOC(=O)CCN1C(=O)[C@H]2[C@H]3[C@H](O)[C@H](O)CC(=NO[C@@H]4O[C@H](CO)[C@@H](O)[C@H](O)[C@H]4O)[C@@H]3CC[C@H]2C1=O
z-score: 0.142
